# Target of assay: MAb 400-3
# Assay explanation: MAb inhibition ELISA; soluble inhibitor of MAb binding to coated hG17(1-9)-“Ala”-BSA
Where no end group is shown, it is not given here. [ ]: non-standard residue; d: D form. pGlu = O=C1CC[C@@H](C(=O)O)N1
Would you kindly list pIC50 for each of these binders?
Quick note: pIC50 means taking -log10 of the concentration in moles per liter.

Qu. Which measured pIC50 value corresponds to EGPWLEKEEAAYGWMDF (ends and bridges not checked) [equine G17] ?
Ans. 6.92

Qu. Which measured pIC50 value corresponds to [pGlu]GPWLEEEEEAYGWMDFG [human glycine-extended gastrin-17 (G17-Gly)] ?
Ans. 5.86

Qu. Which measured pIC50 value corresponds to EGPWLEEEEEAYGWMDF (N-terminal pyroglutamic acid (pGlu); C-terminal Phe-NH2 (amide)) [human gastrin-17 (G17), mature amidated form] ?
Ans. 5.97
